tested on: primary hepatocytes; experiment: Intracellular triglyceride content and BODIPY staining in primary hepatocytes; format: cell-based, mouse; conditions: co-incubation with BBR in the presence of OA
MEASURE_NAME: effect of co-incubation on triglyceride levels within BBR-treated hepatocytes

                                   molecule          target_desc     value_reported
0  O=C(Nc1ccccc1)c1cc([N+](=O)[O-])ccc1Cl [GW9662]  primary hepatocytes  notable reduction
1  Cc1ccc(Cn2nc(CCCc3ccc(OC(C)(C)C(=O)O)cc3)[nH]c2=O)cc1 [LY518674]  primary hepatocytes  notable reduction
2  O=C(Nc1ccncc1)c1cc([N+](=O)[O-])ccc1Cl [T0070907]  primary hepatocytes  notable reduction

* * *

test system: Primary cultured mouse hepatocytes; assay: Cell viability (CCK8) cytotoxicity assay; format: cell-based; details: Mus musculus, Hepatocyte, read-out: 50% inhibitory concentration (IC50), cell viability; 24 h incubation, CCK8
MEASURE_NAME: pIC50
Lab note — pIC50 values are minus log10 of concentrations in M.

Task item: Determine its reported pIC50: CCc1oc2ccccc2c1C(=O)c1cc(Br)c(O)c(Br)c1
Reply: 4.10
